Biological target: Protein RecA (Mycobacterium tuberculosis, UniProt P9WHJ3)
Sequence (P9WHJ3 whole entry): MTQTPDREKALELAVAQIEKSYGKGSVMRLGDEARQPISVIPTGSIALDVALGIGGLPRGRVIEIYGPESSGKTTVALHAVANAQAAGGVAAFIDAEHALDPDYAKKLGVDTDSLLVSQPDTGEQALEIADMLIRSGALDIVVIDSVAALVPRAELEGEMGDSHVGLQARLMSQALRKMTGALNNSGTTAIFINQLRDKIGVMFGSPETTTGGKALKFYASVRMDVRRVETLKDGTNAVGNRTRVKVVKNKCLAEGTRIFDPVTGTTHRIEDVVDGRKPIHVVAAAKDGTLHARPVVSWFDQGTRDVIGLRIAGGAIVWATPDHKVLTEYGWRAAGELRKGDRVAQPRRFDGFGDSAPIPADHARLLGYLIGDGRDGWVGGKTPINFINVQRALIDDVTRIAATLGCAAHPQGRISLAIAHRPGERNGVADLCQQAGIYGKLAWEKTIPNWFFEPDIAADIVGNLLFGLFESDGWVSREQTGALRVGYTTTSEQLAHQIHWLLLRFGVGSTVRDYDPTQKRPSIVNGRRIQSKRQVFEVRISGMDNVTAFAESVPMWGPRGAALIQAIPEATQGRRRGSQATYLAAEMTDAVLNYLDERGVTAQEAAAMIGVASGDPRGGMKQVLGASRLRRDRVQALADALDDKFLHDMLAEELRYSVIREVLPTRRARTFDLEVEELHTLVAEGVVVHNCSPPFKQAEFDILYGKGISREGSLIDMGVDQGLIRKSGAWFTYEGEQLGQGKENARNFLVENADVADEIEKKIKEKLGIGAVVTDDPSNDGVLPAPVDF
Experiment: Fluorescence Cell-Free Homogeneous Dose Retest to Identify Inhibitors of RecA-Intein Splicing Activity. [Related pubchem assays (depositor defined):AID2097, AID2223, AID489010, AID492950]
Assay type: functional
Calls of active or inactive are those of the source.
I would appreciate it if you answered using one of these outcomes: label 1 for active, label 0 for inactive

Please review the following examples before continuing.
CC1=NNC(=O)C1C(c1ccccc1)C(C#N)C#N (stereo not drawn)
label 1
CCCCCc1cc(=O)oc2c(C(CCN3CCCC(C)C3)c3ccc(OC)cc3)c(OC)cc(OC)c12 (stereo not drawn)
label 1
Cc1ccc(-c2n[nH]c3c2C(C)C(C#N)=C(N)O3)cc1 (stereo not drawn)
label 1
Cc1ccc(-n2nnnc2CCl)cc1
label 1
CCOC(=O)c1ccc(Nc2cc3ccccc3c(O)n2)cc1
label 1
O=Cc1sc(=O)n(Cc2cccc(C(=O)O)c2)c1Cl
label 1

# lookup: test call for Cc1cccc(Cn2nnc3c2C(=O)c2ccccc2C3=O)c1
label 1

###

Tested on: BJ
Test: cells
Assay type: functional, cell-based
Conditions: Homo sapiens
Calls of active or inactive are those of the source.
ATTRIBUTE_MEASURED: EC50

Go through the items and report each one's EC50.
1. Cc1ccc(Cl)c(NC(=O)COC(=O)c2ccccc2C(=O)c2ccc(Cl)c([N+](=O)[O-])c2)c1Cl
2. O=C(NC(Nc1nc2ccc([N+](=O)[O-])cc2s1)(C(F)(F)F)C(F)(F)F)c1ccccc1Cl
3. Cc1cccc(OCC(=O)Nc2ccc(C(=O)NCc3cccnc3)cc2)c1

1: 16.8 µM (inconclusive); 2: 1.41 µM (active); 3: 8.97 µM (inconclusive)

###

Let's go through some AC50 measurements on Cytochrome P450 2D6 (Homo sapiens) together.
Sequence (P10635 whole entry): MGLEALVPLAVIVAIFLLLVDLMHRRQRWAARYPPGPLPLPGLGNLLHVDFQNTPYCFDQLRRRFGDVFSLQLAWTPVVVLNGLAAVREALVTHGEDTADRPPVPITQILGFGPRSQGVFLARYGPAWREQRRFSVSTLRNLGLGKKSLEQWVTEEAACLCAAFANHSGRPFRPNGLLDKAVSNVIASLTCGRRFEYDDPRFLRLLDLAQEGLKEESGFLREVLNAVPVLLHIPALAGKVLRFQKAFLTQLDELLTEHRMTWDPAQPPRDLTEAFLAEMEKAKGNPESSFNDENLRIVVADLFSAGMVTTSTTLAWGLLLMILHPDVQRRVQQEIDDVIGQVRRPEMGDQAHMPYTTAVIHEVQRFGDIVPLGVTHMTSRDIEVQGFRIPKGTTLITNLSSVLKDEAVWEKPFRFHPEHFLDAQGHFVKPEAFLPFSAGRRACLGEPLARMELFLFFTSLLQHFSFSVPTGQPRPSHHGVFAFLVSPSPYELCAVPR

CCCCCCCCCCCCCCCCCC(=O)NC[C@@H](COP(=O)([O-])OCC[N+](C)(C)C)OCC
39.8 µM (inconclusive)
CCCN1CCC[C@@H]2Cc3nc(N)ncc3C[C@H]21 [QUINELORANE]
25.1 µM (inconclusive)
CCn1c(SC)nnc1C1CCN(S(=O)(=O)c2ccc(OC)cc2)CC1
8.91 µM (inconclusive)
Cc1ccccc1-c1cncnc1Nc1ccc(F)cc1
39.8 µM (inconclusive)
Cc1nc2ccccn2c1C(=O)CSc1ccccc1Cl
25.1 µM (inconclusive)
CS(=O)(=O)Nc1cccc(-c2cc(Nc3ccccc3)ncn2)c1
25.1 µM (inconclusive)

Query compound follows.
Looking for the measured AC50 of Cc1cc(OCCNCCO)cc(C)c1Cl , can you help?
25.1 µM (inconclusive)

###

Field: AC50. Provide a value for each of the molecules that follow.
Molecular target: Cytochrome P450 2C19 (Homo sapiens, UniProt P33261)
Sequence (P33261 whole entry): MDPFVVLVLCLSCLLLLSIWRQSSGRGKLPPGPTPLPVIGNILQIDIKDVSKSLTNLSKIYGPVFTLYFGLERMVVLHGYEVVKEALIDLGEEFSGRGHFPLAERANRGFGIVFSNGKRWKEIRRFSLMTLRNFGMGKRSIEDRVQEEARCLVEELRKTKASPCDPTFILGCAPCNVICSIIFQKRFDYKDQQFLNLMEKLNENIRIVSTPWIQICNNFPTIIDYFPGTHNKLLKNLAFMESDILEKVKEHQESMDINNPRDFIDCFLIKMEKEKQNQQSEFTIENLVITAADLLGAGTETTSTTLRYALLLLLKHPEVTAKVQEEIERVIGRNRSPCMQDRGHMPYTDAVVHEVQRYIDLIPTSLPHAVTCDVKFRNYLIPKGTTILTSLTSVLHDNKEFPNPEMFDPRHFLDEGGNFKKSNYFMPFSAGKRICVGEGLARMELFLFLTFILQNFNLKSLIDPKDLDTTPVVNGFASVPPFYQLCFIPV
Assay: Cytochrome panel assay with activity outcomes. Panel member name: p450-cyp2c19 Compounds with AC50 equal or less than 10 uM are considered active
Assay type: functional
Conditions: read-out: AC50

Use the examples below as a reference point.
COc1ccc(CNc2nc(-c3ccccc3CN(C)C)nc3ccccc23)c(OC)c1
15.8 µM (inconclusive)
NC(=O)C1CCN(C(=O)OCc2ccccc2)CC1
11.2 µM (inconclusive)
CS(=O)(=O)Nc1cccc(-c2cc(Nc3ccccc3)ncn2)c1
31.6 µM (inconclusive)

Query molecule follows.
Looking for the measured AC50 of COc1ccc(COC(=O)N/N=C(\C)CC(=O)Nc2c(C)cc(C)cc2C)cc1 , can you help?
25.1 µM (inconclusive)

###

Target: Ubiquitin-conjugating enzyme E2 N (Homo sapiens, UniProt P61088);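 note: Dose-response confirmation in a TR-FRET assay detecting UBC13-driven polyubiquitin chain formation, inhibition measured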
Sequence (P61088 whole entry): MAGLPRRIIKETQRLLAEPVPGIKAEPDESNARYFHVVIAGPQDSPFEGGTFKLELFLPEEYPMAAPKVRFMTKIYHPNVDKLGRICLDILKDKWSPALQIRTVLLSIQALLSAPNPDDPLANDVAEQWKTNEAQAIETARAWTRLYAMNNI
Format: functional
The source made the active and inactive calls.
I would appreciate it if you answered using one of these outcomes: t = active, f = inactive

Please review the following examples before continuing.
COc1ccc(NC(=O)CSc2nc3c(sc4ccccc43)c(=O)n2CCCN2CCCC2)cc1
f
Cn1c(=O)c2c(ncn2Cc2ccc(Cl)c(Cl)c2)n(C)c1=O
t

Next:
# lookup: test call for COc1ccc(N(C(=O)c2snc(C(N)=O)c2N)C(C(=O)NC2CCCCC2)c2ccc(C)o2)cc1 (stereo not drawn)
f

###

Field: AC50. Provide a value for each of the molecules that follow.
Target: FAD-linked sulfhydryl oxidase ALR (Homo sapiens, UniProt P55789)
Sequence (P55789 whole entry): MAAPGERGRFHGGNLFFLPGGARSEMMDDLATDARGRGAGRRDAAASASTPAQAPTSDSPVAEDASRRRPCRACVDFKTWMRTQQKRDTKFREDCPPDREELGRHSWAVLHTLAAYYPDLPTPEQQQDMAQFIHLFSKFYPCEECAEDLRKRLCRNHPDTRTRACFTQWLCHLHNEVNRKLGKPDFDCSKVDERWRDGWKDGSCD
Experiment: ALR-catalysed DTT oxidation blockers – biochemical, H2O2 detection, luminescence, cherry-pick, dose response (AID 493248)
Activity calls are given as the source filed them.

Use the examples below as a reference point.
COc1cc(/C=N/n2c(C)nnc2S)ccc1OCc1ccccc1
861 nM (active)
O=S(=O)(c1ccccc1)c1cc(O)ccc1O
6080 nM (active)
CSc1cccc(NC(=O)CN2C(=O)c3ccccc3S2(=O)=O)c1
2370 nM (active)

Go through the items and report each one's AC50.
1. O=C(O)c1cccc(NC(=O)c2cc(-c3cccc(Cl)c3)nc3ccccc23)c1
2. COc1cccc2c(N/N=C/c3ccccc3)cc(C)nc12

1: 10 nM (active); 2: 6410 nM (active)

###

Biological target: Protein RecA (Mycobacterium tuberculosis, UniProt P9WHJ3)
Experiment: Fluorescence Cell-Free Homogeneous Dose Retest to Identify Inhibitors of RecA-Intein Splicing Activity. [Related pubchem assays (depositor defined):AID2097, AID2223, AID489010, AID492950]
Assay type: functional
Activity calls are given as the source filed them.
I would appreciate it if you answered using one of these outcomes: 1 (active), 0 (inactive)

# lookup: test call for CC(C)c1nnc(NC(=O)c2nc(S(=O)(=O)Cc3ccc(F)cc3)ncc2Cl)s1
1

# lookup: test call for CCCc1[nH][nH]c(=O)c1C(c1cccc(Cl)c1)C(C#N)C#N (stereo unspecified)
1

# lookup: test call for Nc1ccc(O)c2ccccc12
1

# lookup: test call for COc1cc(/C=C2/C(=O)N(c3ccccc3)N=C2C)ccc1OS(=O)(=O)c1ccccc1
1

# lookup: test call for CCOC(=O)N/N=C\c1ccc(OC(=O)c2ccco2)cc1
1

# lookup: test call for O=C1/C(=C/c2ccccc2F)SC(=S)N1CC(=O)N1CCCCC1c1cccnc1 (stereo unspecified)
1

# lookup: test call for NS(=O)(=O)c1ccc(/N=C/c2c(O)oc3ccccc3c2=O)cc1
0

# lookup: test call for CCOc1ccc(C(c2c(C)n[nH]c2O)c2c(C)n[nH]c2O)cc1OCC
1

# lookup: test call for CCC(=O)Oc1ccc(C(=O)Nc2cccc(C(=O)c3ccccc3)c2)cc1
1

Taken from ChEMBL document CHEMBL1201862.
